- MEASUREMENT NOTES: Compound toxicity to human cortical neurons in absence of Aβ1-40, added as in pretreatment protocol
- Assay type: cell-based
- ASSAY CONDITIONS: human, cortical neurons, no Aβ1-40, 3 days, n=3, ND = not detected at the concentration range used, read-out: TD50 (concentration giving 50% loss of neuronal survival)
Can you tell me CC50 at 72 h for the items I'm about to list?
The reply should contain only the number, in µM.

Lookup result for CC1=C(CC/C(C)=C/CCC2=CC[C@H](C3=CC(=O)O[C@H]3O)O[C@H]2O)C(C)(C)CCC1 [Manoalide] ; measured CC50 at 72 h: 10

Data point: O=C(CBr)c1ccc(Br)cc1 [p-Bromophenacyl Bromide] ; CC50 at 72 h = 10
